Experiment notes: chemical genetic growth profiling, strain panel (AID 1159580);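 further: tested at 20 µM; growth read once vehicle control cultures reached saturation at 30 °C; 1 = growth at the plate median or of vehicle wells; lower values mean less growth of the strain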
Particulars: S. cerevisiae deletion strains, growth OD, locus YDR150W, strain NUM1, active compounds read low
About 2,000 (36%) of roughly 5,500 compounds were called active. Another 18% or so got no clear call; they are omitted. The list shows a part of the results.
Assay endpoint: normalized growth

>>> observed_measurement("O=C(NNC(=S)Nc1cccc(Cl)c1)c1cccnc1")
0.969
>>> observed_measurement("O=C(NNC(=S)NC1CC2C=CC1C2)c1cccnc1 (configuration not stated)")
0.971
>>> observed_measurement("COc1cc2cccc(OC)c(=O)c2c(OC)c1OC")
1.02
>>> observed_measurement("O=C(CNc1cccc(Cl)c1)c1ccc(Cl)cc1")
0.89
>>> observed_measurement("CNC(C)[C@@H]1CC[C@@H](N)[C@@H](OC2[C@@H](N)C[C@@H](N)[C@H](OC3OC[C@](C)(O)[C@H](NC)[C@H]3O)[C@H]2O)O1 (some centres not stated)")
1.01
>>> observed_measurement("O=C1C(=O)c2ccccc2C(O)=C1C1CCC(c2ccc(Cl)cc2)CC1 (configuration not stated)")
1.01
>>> observed_measurement("Cc1c(NC(C)C)c(=O)n(-c2ccccc2)n1C")
1
>>> observed_measurement("CN(C)c1cc2c(Nc3ccc4c(cnn4Cc4ccccc4)c3)ncnc2cn1")
1.01
>>> observed_measurement("CN1C(=O)CC[C@H]1c1cccnc1")
0.992
>>> observed_measurement("O=C(CSCc1c(Cl)cccc1Cl)NNC(=S)NC1CC2C=CC1C2 (configuration not stated)")
0.956
>>> observed_measurement("O=C1CSC(c2cccnc2)N1c1ccc(Cl)cc1 (configuration not stated)")
0.997
>>> observed_measurement("CON")
0.993

====

Each entry below lists one item and its recorded normalized growth value.
Experiment notes: chemical genetic growth profiling, strain panel (AID 1159580);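 further: tested at 20 µM; growth read once vehicle control cultures reached saturation at 30 °C; 1 = growth at the plate median or of vehicle wells; lower values mean less growth of the strain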
Particulars: S. cerevisiae deletion strains, growth OD, locus YBR229C, strain ROT2, active compounds read low
Hit rate of the full screen: of about 5,500 compounds, about 2,000 (36%) were called active. Inconclusive results (about 18%) are left out. The list shows a part of the results.
Assay endpoint: normalized growth

>>> observed_measurement("COC(=O)c1cc(OC)c(OC)cc1NC(=O)Nc1cc(Cl)cc(Cl)c1")
0.998
>>> observed_measurement("CC(=O)c1ccc(Sc2ccccn2)c([N+](=O)[O-])c1")
1
>>> observed_measurement("O=C(O)c1ccccc1Sc1c(C(=O)O)cc([N+](=O)[O-])cc1[N+](=O)[O-]")
1.01
>>> observed_measurement("CC(=O)Oc1c(C)c(C)c2c(c1C)CCC(C)(CCCC(C)CCCC(C)CCCC(C)C)O2 (configuration not stated)")
1.02
>>> observed_measurement("COc1ccccc1N1CC(C)(C)C(=O)N(C(=O)c2c(F)cccc2Cl)C1=S")
1.02
>>> observed_measurement("CC(C)OC(=O)Nc1cccc(Cl)c1")
0.979
>>> observed_measurement("C=C(C)C1Cc2c(ccc(C(=O)O)c2O)O1 (configuration not stated)")
0.984
>>> observed_measurement("CC(NC(C)(C)C)C(=O)c1cccc(Cl)c1 (configuration not stated)")
1
>>> observed_measurement("O=C1NS(=O)(=O)c2ccccc21")
1.01
>>> observed_measurement("CC(C)N1C(=O)c2ccccc2NS1(=O)=O")
1
>>> observed_measurement("C=C(C)C1Cc2c(ccc3c(=O)c4c(oc23)COc2cc(OC)c(OC)cc2-4)O1 (configuration not stated)")
1
>>> observed_measurement("Oc1cccc2cccnc12")
0.0533
